Provenance of the data: paper PMC5011342

- System: expanded OPCs
- assay-info: cells
- measurement-parameters: alamarBlue viability of expanded OPCs, compound at 1 µM, relative to DMSO control
Reported values of 1 µM (% DMSO) for individual entries

| molecule | 1 µM (% DMSO) |
| --- | --- |
| O=S(=O)(O)CCS | 91.3 |
| CN(C)CCCC1(c2ccc(F)cc2)OCc2cc(C#N)ccc21 (stereo not shown) [Nitalapram, reference compound] | 108.9 |
| CCC[C@@H]1C[C@@H](C(=O)N[C@@H]([C@H]2O[C@H](SC)[C@H](O)[C@@H](O)[C@H]2O)[C@@H](C)O)N(C)C1 | 94.1 |
| CC(=O)OCC(=O)[C@@]1(O)CC[C@H]2[C@@H]3CCC4=CC(=O)C=C[C@]4(C)[C@H]3[C@@H](O)C[C@@]21C [Prednisolone acetate] | 112.6 |
